- assayed-system: CDK2/Cyclin E1 (Homo sapiens)
- Construct: purchased 14-475
- method: ADPGLO (CDK2/E1-37 C), ADP-Glo Luminescent Kinase Assay
- Type: biochemical
- measurement-parameters: 0.18 nM CDK2/Cyclin E1, 100 μM ATP, Histone H1, 37° C.
measure-name: IC50

CC(c1nc(C2CN(C(=O)c3cnn(Cc4ccccc4C(=O)O)c3)CC23CN(C(=O)[C@H]2CC2(C)C)C3)no1)n1ccc(C2CCCC2)n1 (some centres unmarked) [I-123]: ≤ 0.5 µM
CC1(C)C[C@@H]1C(=O)N1CC2(CN(C(=O)c3cncs3)CC2c2nnc(C(F)(F)c3ccc(Cl)c(Cl)c3)o2)C1 (some centres unmarked) [I-32]: 0.5 to 5 µM
COc1ccc(COc2cncc(C(=O)N3CC(c4nnc(C(F)(F)c5ccc(Cl)c(Cl)c5)o4)C4(C3)CN(C(=O)[C@H]3CC3(F)F)C4)n2)cc1 (some centres unmarked) [I-125]: > 100 µM
O=C(c1cc(C(F)(F)F)n[nH]1)N1CC(c2nnc(C(F)(F)c3ccc(Cl)c(Cl)c3)o2)C2(CN(CC3CCCO3)C2)C1 (centres unmarked) [I-142]: > 10 µM
CC(c1nc(C2CN(C(=O)c3cnn(Cc4ccc(C(F)(F)F)cc4)c3)CC23CN(C(=O)C2(C(F)(F)F)CC2)C3)no1)n1ccc(C2(C(F)(F)F)CC2)n1 (centres unmarked) [I-223]: > 10 µM
CC(c1nc(C2CN(C(=O)c3cnn(Cc4ccc(C#N)cc4)c3)CC23CN(C(=O)[C@H]2CC2(C)C)C3)no1)n1ccc(C2CCCC2)n1 (some centres unmarked) [I-133]: ≤ 0.5 µM

## Task Entry CC1(C)C[C@@H]1C(=O)N1CC2(CN(C(=O)c3cnn(Cc4ccccc4)c3)C[C@H]2c2nnc(Cc3ccc(Cl)c(Cl)c3)o2)C1 [I-15] has what IC50?
## Result 0.5 to 5 µM

## Task And what about the molecule COC(=O)c1cc(C(F)(F)F)ccc1Cn1cc(C(=O)N2CC(c3noc(C(C)n4ccc(C5(C(F)(F)F)CC5)n4)n3)C3(C2)CN(C(=O)C2(C(F)(F)F)CC2)C3)cn1 (centres unmarked) [I-219] ?
## Result > 10 µM

## Task What do you get for CC(c1nc(C2CN(C(=O)c3cnn(Cc4ccc(C(F)(F)F)cc4)c3)CC23CN(C(=O)C2(C(F)(F)F)CC2)C3)no1)n1ccc(C23CCC(CC2)OC3)n1 (centres unmarked) [I-217] ?
## Result 0.5 to 5 µM

## Task Next record, please: CC(c1nc(C2CN(C(=O)c3cnn(Cc4ccc(C#N)cc4)c3)CC23CN(C(=O)C2(C(F)(F)F)CC2)C3)no1)n1ccc(C2CCC(F)(F)CC2)n1 (centres unmarked) [I-210]
## Result 0.5 to 5 µM

## Task Another molecule to look at: CC(c1nc(C2CN(C(=O)c3cnn(Cc4cccc(C(=O)O)c4)c3)CC23CN(C(=O)[C@H]2CC2(C)C)C3)no1)n1ccc(C2CCCC2)n1 (some centres unmarked) [I-131]
## Result 0.5 to 5 µM

## Task What do we get for CC(c1nc(C2CN(C(=O)c3cnc(O)cn3)CC23CN(C(=O)[C@H]2CC2(F)F)C3)no1)n1ccc(C2CCOCC2)n1 (some centres unmarked) [I-116] ?
## Result > 10 µM

## Task What about this molecule? CC(c1nc(C2CN(C(=O)c3cnn(Cc4ccc(-c5nnn[nH]5)cc4)c3)CC23CN(C(=O)[C@H]2CC2(C)C)C3)no1)n1ccc(C2CCCC2)n1 (some centres unmarked) [I-121]
## Result 0.5 to 5 µM

## Task # repeat for Cc1nc(C(=O)N2C[C@H](c3noc(C(C)n4ccc(C5CCOCC5)n4)n3)C3(C2)CN(C(=O)C2(C(F)(F)F)CC2)C3)cnc1O (some centres unmarked) [I-224]
## Result > 10 µM

* * *

- assayed-system: CDK2/Cyclin E1 (Homo sapiens)
- Construct: purchased 14-475
- method: Caliper Assay (LabChip EZ Reader mobility shift assay), inhibition of CDK2/Cyclin E1 activity
- Assay type: biochemical
- measurement-parameters: 2.5 nM CDK2/Cyclin E1(14-475), 100 μM ATP, 30 min preincubation; read-out: Caliper Assay (CDK2/CCNE1): IC50
- Protocol: Inhibition of CDK2/Cyclin E1 activity in the presence of compounds of the present disclosure was evaluated using a Caliper LabChip® EZ Reader mobility shift assay. […] The peptide substrate and product were measured, and the conversion ratio was used to determine the inhibition (as % activity and IC50 values) of CDK2/Cyclin E1. […]
pIC50: −log10 of the molar value.
Reported pIC50 values for a set of compounds

Past entries and their recorded results:
CC1(C)C[C@@H]1C(=O)N1CC2(CN(C(=O)c3cncs3)CC2c2nnc(Cc3ccc4c(c3)OCCO4)o2)C1 (some centres unmarked): 6.00 to 7.00
O=C(c1noc2ccccc12)N1CC(c2nnc(C(F)(F)c3ccc(Cl)c(Cl)c3)o2)C2(C1)CN(C(=O)[C@H]1CC1(F)F)C2 (some centres unmarked): < 5.00

## Task Which pIC50 value belongs to CC(c1nnc(C2CN(C(=O)c3cncs3)CC23CN(C(=O)[C@H]2CC2(C)C)C3)o1)n1ccc(C2CCCC2)n1 (some centres unmarked) ?
## Result 7.00 to 8.00

## Task What do you have for CC1(C)C[C@@H]1C(=O)N1CC2(CN(C(=O)c3cncs3)CC2c2nnc(CCc3ccc(Cl)c(Cl)c3)o2)C1 (some centres unmarked) ?
## Result 6.00 to 7.00

## Task Could you do the same for CC1(C)C[C@@H]1C(=O)N1CC2(CN(C(=O)c3cnn(Cc4ccccc4)c3)CC2c2noc(Cc3ccc(Cl)cc3)n2)C1 (some centres unmarked) , please?
## Result 6.00 to 7.00

## Task Same thing, different compound: COC(=O)c1coc(C2CN(C(=O)c3cnn(Cc4ccccc4)c3)CC23CN(C(=O)[C@H]2CC2(C)C)C3)n1 (some centres unmarked)
## Result < 5.00

## Task Now consider CC1(C)C[C@@H]1C(=O)N1CC2(CN(C(=O)c3cncs3)CC2(F)c2nnc(C(F)(F)c3ccc(Cl)c(Cl)c3)o2)C1 (single isomer, unassigned) [I-38 3rd] and answer again.
## Result < 5.00

## Task Similarly, CC1(C)C[C@@H]1C(=O)N1CC2(CN(C(=O)c3cnn(Cc4ccccc4)c3)CC2c2ccc(NC(=O)C3CCCCC3)cc2)C1 (some centres unmarked) ?
## Result 5.00 to 6.00

## Task Then this compound: CC(C)(C#N)C(=O)N1CC2(CN(Cc3cncs3)CC2c2nnc(C(F)(F)c3ccc(Cl)c(Cl)c3)o2)C1 (centres unmarked)
## Result < 5.00

## Task Record: CC(c1nc(C2CN(C(=O)c3cnn(Cc4ccc(C(=O)O)cc4)c3)CC23CN(C(=O)[C@H]2CC2(C)C)C3)no1)n1ccc(C2CCCC2)n1 (some centres unmarked)
## Result 6.00 to 7.00

* * *

- assayed-system: CDK2/Cyclin E1 (Homo sapiens, UniProt P24941)
- Construct: purchased 14-475
- method: ADPGLO (CDK2/E1-37 C), ADP-Glo Luminescent Kinase Assay
- Assay type: biochemical
- measurement-parameters: 0.18 nM CDK2/Cyclin E1, 100 μM ATP, Histone H1, 37° C.
pIC50: −log10 of the molar value.
Items are presented alongside their recorded pIC50.

CC(c1nc(C2CN(C(=O)c3cnn(CC#N)c3)CC23CN(C(=O)[C@H]2CC2(C)C)C3)no1)n1ccc(C2CCCC2)n1 (stereo partly drawn) [I-119]: 5.30 to 6.30
COC(=O)c1cc(C#N)ccc1Cn1cc(C(=O)N2CC(c3noc(C(C)n4ccc(C5(C(F)(F)F)CC5)n4)n3)C3(C2)CN(C(=O)C2(C(F)(F)F)CC2)C3)cn1 (stereo not drawn) [I-215]: 5.30 to 6.30
O=C(c1cnc(O)cn1)N1CC(c2nnc(C(C(=O)N3CCC(c4nccs4)CC3)c3ccc(C4CCOCC4)cc3)o2)C2(C1)CN(C(=O)C1(C(F)(F)F)CC1)C2 (stereo not drawn) [I-209]: < 5.00
CC(c1nc(C2CN(C(=O)c3cnn(Cc4ccc(OC(C)(C)C(=O)O)cc4)c3)CC23CN(C(=O)[C@H]2CC2(C)C)C3)no1)n1ccc(C2CCCC2)n1 (stereo partly drawn) [I-124]: 5.30 to 6.30
O=C(c1cnc(O)cn1)N1CC(c2nnc(C(F)(F)c3ccc(C4CCOCC4)cc3)o2)C2(C1)CN(C(=O)[C@H]1CC1(F)F)C2 (stereo partly drawn) [I-132]: < 5.00

Attention now shifts to the item below.
## Task Returns the measured pIC50 for the input molecule. Input: CC1(C)C[C@@H]1C(=O)N1CC2(CN(C(=O)c3cncs3)CC2c2nc3ccc(Oc4ccccc4-c4cncs4)cc3o2)C1 (stereo partly drawn) [I-221]
## Result 5.30 to 6.30

* * *

Let's look at some compounds and their measured IC50.
- assayed-system: CDK2/Cyclin E1 (Homo sapiens)
- Construct: purchased 14-475
- method: Caliper Assay (LabChip EZ Reader mobility shift assay), inhibition of CDK2/Cyclin E1 activity
- Assay type: biochemical
- measurement-parameters: 2.5 nM CDK2/Cyclin E1(14-475), 100 μM ATP, 30 min preincubation; read-out: Caliper Assay (CDK2/CCNE1): IC50
- Procedure: Inhibition of CDK2/Cyclin E1 activity in the presence of compounds of the present disclosure was evaluated using a Caliper LabChip® EZ Reader mobility shift assay. […] The peptide substrate and product were measured, and the conversion ratio was used to determine the inhibition (as % activity and IC50 values) of CDK2/Cyclin E1. […]
Where a name gives a salt, the structure may show the parent alone.

In the examples that follow, each entry is paired with its recorded IC50.
O=C(N1CC2(C1)CN(c1ncnc3ncsc13)CC2c1nnc(C(F)(F)c2ccc(Cl)c(Cl)c2)o1)C1(C(F)(F)F)CC1 (stereo not drawn) [I-181]: > 10 µM
CC(c1nc(C2CN(C(=O)c3cncs3)CC23CN(C(=O)[C@H]2CC2(C)C)C3)no1)n1ccc(C2CCCC2)n1 (single isomer, unassigned) [I-36 2nd]: 1 to 10 µM

## Task # IC50 lookup, item O=C(c1ccn[nH]1)N1CC(c2nnc(C(F)(F)c3ccc(Cl)c(Cl)c3)o2)C2(CN(CC3CCCO3)C2)C1 (stereo not drawn) [I-139, formate]
## Result > 100 µM

## Task Please give the result for CC1(C)C[C@@H]1C(=O)N1CC2(CN(C(=O)c3cncs3)CC2c2nnc(Cc3nc(C4CCOCC4)ccc3F)o2)C1 (stereo partly drawn) [I-50] too.
## Result 1 to 10 µM

## Task Okay, and CC1(C)C[C@@H]1C(=O)N1CC2(CN(C(=O)c3cnn(Cc4ccccc4)c3)CC2c2ccc(NCc3ccccc3)cc2)C1 (stereo partly drawn) [I-93] ?
## Result 1 to 10 µM

## Task Now give it for CC1(C)C[C@@H]1C(=O)N1CC2(C1)CN(c1cccc3ncsc13)CC2c1nnc(Cc2ccc(Cl)c(Cl)c2)o1 (stereo partly drawn) [I-101] too.
## Result > 10 µM

## Task Now this one: CC(c1nc(C2CN(C(=O)c3cncs3)CC23CN(C(=O)[C@H]2CC2(C)C)C3)no1)n1cc2ccccc2n1 (stereo partly drawn) [I-75]
## Result 0.1 to 1 µM

## Task // query: CC1(C)C[C@@H]1C(=O)N1CC2(CN(C(=O)c3cnc(Br)s3)CC2c2nnc(C(F)(F)c3ccc(Cl)c(Cl)c3)o2)C1 (stereo partly drawn) [I-199]
## Result > 10 µM

## Task Now consider CC(C)(C(=O)N1CC2(CN(C(=O)c3cncs3)CC2c2nnc(C(F)(F)c3ccc(Cl)c(Cl)c3)o2)C1)C(F)(F)F (stereo not drawn) [I-57] and answer again.
## Result 0.1 to 1 µM

## Task Okay, and O=C(c1cncs1)N1CC(c2nnc(C(F)(F)c3ccc(Cl)c(Cl)c3)o2)C2(C1)CN(C(=O)[C@@H]1CCCN1)C2 (stereo partly drawn) [I-169 2nd] ?
## Result > 10 µM

## Task # repeat for Cc1cc(C)n(Cc2nnc(C3CN(C(=O)c4cnn(Cc5ccccc5)c4)CC34CN(C(=O)[C@H]3CC3(C)C)C4)o2)n1 (stereo partly drawn) [I-13]
## Result 1 to 10 µM

## Task Lookup CC(c1cccc(C2CCOCC2)n1)c1nnc(C2CN(C(=O)c3cncs3)CC23CN(C(=O)[C@H]2CC2(C)C)C3)o1 (stereo partly drawn) [I-78]
## Result 0.1 to 1 µM

## Task Another compound to check: C[C@H](NC(=O)c1coc(C2CN(C(=O)c3cnn(Cc4ccccc4)c3)CC23CN(C(=O)[C@H]2CC2(C)C)C3)n1)c1ccccc1 (stereo partly drawn) [I-88]
## Result 0.1 to 1 µM

## Task # iterate: CC1(C)C[C@@H]1C(=O)N1CC2(CN(C(=O)c3cnccn3)CC2c2nnc(C(F)(F)c3ccc(Cl)c(Cl)c3)o2)C1 (single isomer, unassigned) [I-45 1st]
## Result 0.1 to 1 µM

## Task Next record, please: CC(c1nc(C2CN(C(=O)c3cncs3)CC23CN(C(=O)[C@H]2CC2(C)C)C3)no1)n1ccc(C2CCCC2)n1 (single isomer, unassigned) [I-36 3rd]
## Result 0.01 to 0.1 µM

## Task Then CC1(C)C[C@@H]1C(=O)N1CC2(CN(C(=O)c3cncs3)CC2c2nnc(Cc3ccc(C4CCOCC4)c(Cl)c3)o2)C1 (stereo partly drawn) [I-31] ?
## Result 0.1 to 1 µM
